# Measured target: human full-length glucocorticoid receptor (Homo sapiens, UniProt P04150)
# Construct: recombinantly expressed human full-length glucocorticoid receptor; purchased PanVera Co., Madison, Wis; P2816
# Sequence (P04150 1-777): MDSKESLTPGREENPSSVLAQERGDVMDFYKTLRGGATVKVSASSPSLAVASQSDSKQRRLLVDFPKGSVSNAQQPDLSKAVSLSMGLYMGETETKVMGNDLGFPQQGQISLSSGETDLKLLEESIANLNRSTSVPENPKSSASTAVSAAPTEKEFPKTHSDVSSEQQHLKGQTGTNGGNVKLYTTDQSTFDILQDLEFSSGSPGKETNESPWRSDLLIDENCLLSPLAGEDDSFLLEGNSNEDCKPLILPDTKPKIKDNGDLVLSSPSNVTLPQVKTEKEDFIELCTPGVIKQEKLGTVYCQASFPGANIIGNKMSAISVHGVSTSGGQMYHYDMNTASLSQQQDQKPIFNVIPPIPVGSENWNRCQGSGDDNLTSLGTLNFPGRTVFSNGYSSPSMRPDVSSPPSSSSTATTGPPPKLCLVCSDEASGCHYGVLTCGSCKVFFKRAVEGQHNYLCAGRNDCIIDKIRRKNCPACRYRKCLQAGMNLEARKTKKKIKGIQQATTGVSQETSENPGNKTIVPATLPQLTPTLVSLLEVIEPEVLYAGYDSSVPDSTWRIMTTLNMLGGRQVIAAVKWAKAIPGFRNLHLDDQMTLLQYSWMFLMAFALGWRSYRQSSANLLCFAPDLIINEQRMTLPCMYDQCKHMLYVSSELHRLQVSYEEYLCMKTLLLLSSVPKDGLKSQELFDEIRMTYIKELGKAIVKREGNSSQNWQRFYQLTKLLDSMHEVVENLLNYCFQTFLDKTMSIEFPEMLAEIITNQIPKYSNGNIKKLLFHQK
# Assay overview: Glucocorticoid Receptor Binding Assay (II), fluorescence polarization competitor kit
# Measurement context: 1 h, % Relative Binding Affinity to dexamethasone, read-out: GR (% RBA* @ 10 μM) (GR Binding Assay (II)b)
Exercise: state measured percent relative binding activity vs dexamethasone at 10 µM for each of the compounds provided.
Answers are plain numbers, in %.

> print(dat)
                                   compound  recorded.result
1  CC(C)(C(=O)Nc1nncs1)C(c1ccccc1)c1ccc(N2CCC(O)CC2)nc1 (stereo not shown)              112

Could I get percent relative binding activity vs dexamethasone at 10 µM for every one of these entries?
1. COc1ncc(C(c2ccccc2)C(C)(C)C(=O)Nc2nncs2)cc1Cl (stereo not shown)
2. Cc1ccc(CNc2ccc(C(c3ccccc3)C(C)(C)C(=O)Nc3nccs3)cn2)cc1 (stereo not shown)
3. CC(C)(C(=O)Nc1nncs1)C(c1ccccc1)c1ccc(N2CCOCC2)nc1 (single isomer, unassigned)

1. 52.8
2. 37.2
3. 477

----------
# Measured target: human glucocorticoid receptor (Homo sapiens)
# Construct: purified human recombinant full-length glucocorticoid receptor (2 nM); purchased Invitrogen Part #2893
# Assay overview: Glucocorticoid Receptor Binding Assay (I), fluorescence polarization competitor kit
# Measurement context: purified human recombinant full-length GR, Fluormone GS Red
// NB: equality with 4 nM counts as Not satisfied; only Ki strictly below is Satisfied

Does CCN(C)C(=O)c1ccc(-c2ccc(C(c3cc(F)cc(F)c3)C(C)(C)C(=O)Nc3nncs3)s2)cc1 (stereo not drawn) [Example 92] have Ki strictly under 4 nM?
Satisfied

----------
# Measured target: human full-length glucocorticoid receptor (Homo sapiens, UniProt P04150)
# Construct: recombinantly expressed human full-length glucocorticoid receptor; purchased PanVera Co., Madison, Wis; P2816
# Sequence (P04150 1-777): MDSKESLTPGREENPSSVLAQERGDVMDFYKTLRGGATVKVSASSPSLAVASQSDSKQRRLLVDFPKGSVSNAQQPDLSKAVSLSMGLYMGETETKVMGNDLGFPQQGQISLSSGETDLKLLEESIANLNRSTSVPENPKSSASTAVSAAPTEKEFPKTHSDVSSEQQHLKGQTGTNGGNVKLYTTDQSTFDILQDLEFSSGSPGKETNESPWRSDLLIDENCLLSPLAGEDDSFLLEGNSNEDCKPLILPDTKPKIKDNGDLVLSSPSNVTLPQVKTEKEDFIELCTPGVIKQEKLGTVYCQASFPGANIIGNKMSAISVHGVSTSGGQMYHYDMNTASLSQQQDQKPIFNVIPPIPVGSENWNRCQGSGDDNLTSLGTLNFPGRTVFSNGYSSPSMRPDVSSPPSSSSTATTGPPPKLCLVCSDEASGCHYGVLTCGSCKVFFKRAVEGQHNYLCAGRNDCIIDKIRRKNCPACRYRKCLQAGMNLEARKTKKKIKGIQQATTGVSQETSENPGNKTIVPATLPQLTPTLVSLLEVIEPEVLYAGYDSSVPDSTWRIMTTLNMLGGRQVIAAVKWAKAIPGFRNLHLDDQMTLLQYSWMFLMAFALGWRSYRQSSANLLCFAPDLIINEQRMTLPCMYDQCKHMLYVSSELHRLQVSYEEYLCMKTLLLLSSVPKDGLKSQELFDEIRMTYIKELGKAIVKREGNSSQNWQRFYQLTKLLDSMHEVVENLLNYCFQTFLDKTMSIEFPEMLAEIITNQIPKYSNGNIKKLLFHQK
# Assay overview: Glucocorticoid Receptor Binding Assay (II), fluorescence polarization competitor kit
# Measurement context: 1 h, % Relative Binding Affinity to dexamethasone, read-out: GR (% RBA* @ 10 μM) (GR Binding Assay (II)b)
Endpoint: percent relative binding activity vs dexamethasone at 10 µM (%)
Numbers only, in %.

The examples below pair each entry with its known result.
> print(dat)
                                   molecule  recorded.result
1  CC(C)(C(=O)Nc1nccs1)C(c1ccccc1)c1ccc(N2CCOCC2)nc1 (single isomer, unassigned) [Example 20]              152
2  CC(C)(C(=O)Nc1nccs1)C(c1ccc(N2CCOCC2)cc1)c1cccs1 (stereo not drawn) [Example 12]              6.1
3  CC(C)(C(=O)Nc1nncs1)C(c1ccccc1)c1ccncc1 (stereo not drawn) [Example 6]              502
4  CC(C)(C(=O)Nc1nccs1)C(c1cccc(F)c1)c1ccc(Br)s1 (stereo not drawn) [Example 2]             10.1
5  CC(C)(C(=O)Nc1nncs1)C(c1ccccc1)c1ccc(N2CCCCC2)nc1 (stereo not drawn) [Example 15]             14.7

List the reported percent relative binding activity vs dexamethasone at 10 µM of each molecule below.
1. CC(C)(C(=O)Nc1nncs1)C(c1ccccc1)c1cnc(N2CCOCC2)c(Cl)c1 (stereo not drawn) [Example 28]
2. CC(C)(C(=O)Nc1nncs1)C(c1cccc(F)c1)c1ccc(Br)s1 (stereo not drawn) [Example 1]
3. CC(C)(C(=O)Nc1nncs1)C(c1ccccc1)c1ccc(N2CCCC2)nc1 (stereo not drawn) [Example 16]
4. CC(C)(C(=O)Nc1nccs1)C(c1ccccc1)c1ccncc1 (stereo not drawn) [Example 7]

[187, 6.4, 90.4, 161]

----------
# Test system: AP-1 induced transcriptional activity
# Assay overview: Cellular Transrepressional Assay (AP-1 luciferase reporter in A549 cell, PMA activated)
# Type: cell-based
# Measurement context: Homo sapiens, A549, 7 h, maximum inhibition, pAP-1-Luc, PMA, read-out: AP-1 Max % inh (Cellular Transrepression Assay)
Endpoint: Emax (%)
One number for each entry, in %.

Look over these answered cases.
> print(dat)
                                   molecule  recorded.result
1  CC(C)(C(=O)Nc1nncs1)C(c1ccccc1)c1ccc(N2CCOCC2)nc1 (single isomer, unassigned) [Example 23]             29.4
2  CCN(C)C(=O)c1ccc(-c2ccc([C@@H](c3cccc(F)c3)[C@@H](C)C(=O)Nc3nncs3)s2)cc1F             42.9
3  CC(C)Oc1ccc(-c2ccc([C@@H](c3cccc(F)c3)[C@@H](C)C(=O)Nc3nncs3)s2)cc1             37.8
4  C[C@@H](C(=O)Nc1nncs1)[C@H](c1cccc(F)c1)c1ccc(-c2ccc(C(=O)N3CCCC3)c(F)c2)s1             40.8

Below: the item to evaluate.
Per the record, C[C@@H](C(=O)Nc1nncs1)[C@@H](c1cccc(F)c1)c1ccc(Br)s1 has Emax of 27.4

----------
# Tested on: AP-1 induced transcriptional activity
# Assay overview: Cellular Transrepressional Assay (AP-1 luciferase reporter in A549 cell, PMA activated)
# Type: cell-based
# Measurement context: Homo sapiens, A549, 7 h, maximum inhibition, pAP-1-Luc, PMA, read-out: AP-1 Max % inh (Cellular Transrepression Assay)
Emax vs 50%: at or above is y, below is n.

> print(dat)
                                   molecule  assigned.label
1  C[C@@H](C(=O)Nc1nncs1)[C@H](c1cccc(F)c1)c1ccc(-c2ccc(C(=O)N3CCCC3)c(Cl)c2)s1               n
2  C[C@@H](C(=O)Nc1nncs1)[C@H](c1cccc(F)c1)c1ccc(-c2ccc(C(=O)N3CCCC3)cc2)s1               y
3  CCN(C)C(=O)c1ccc(-c2ccc([C@@H](c3cccc(F)c3)[C@@H](C)C(=O)Nc3nncs3)s2)cc1               y

Please turn your attention to the following entry.
Threshold query (Emax >= 50%) on CN(C)C(=O)c1ccc(-c2ccc(C(c3ccccc3)C(C)(C)C(=O)Nc3nncs3)cn2)cc1 (stereo not drawn)
n
